# target_of_assay: pERK1/2 (Thr202/Tyr204), PANC-1 (KRAS G121D) (Homo sapiens, UniProt P01116, G12D)
# Construct: pERK1/2 HTRF read-out
# Sequence (P01116 1-188 isoform P01116-2 G12D): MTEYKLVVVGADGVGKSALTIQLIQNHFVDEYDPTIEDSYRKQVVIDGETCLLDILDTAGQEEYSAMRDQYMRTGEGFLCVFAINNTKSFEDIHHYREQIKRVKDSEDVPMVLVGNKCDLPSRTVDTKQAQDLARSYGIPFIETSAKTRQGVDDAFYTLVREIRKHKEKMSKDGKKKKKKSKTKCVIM
# experiment: Assay of intracellular pERK1/2 (Thr202/Tyr204) phosphorylation in PANC-1 cells (KRAS G12D)
# Format: cell-based
# particulars: pERK1/2, 2 days, read-out: PANC-1 (KRAS G12D) IC50
Please provide measured IC50 for the entries that follow.

(Q) # IC50 lookup, item C/C=C/c1cc(N)cc(-c2nc3c4c(nc(OC[C@@]56CCCN5C[C@H](F)C6)nc4c2F)N(C(C)c2cccnc2N)[C@@H](C)CO3)c1C(F)(F)F (stereo partly drawn) [Compound 302]
(A) > 100 nM

(Q) And then Cc1cc(N)cc(-c2nc3c4c(nc(OC[C@@H]5CCCN5C)nc4c2F)N(C(C)c2cccnc2N)CCO3)c1C(F)(F)F (single isomer, unassigned) [Compound 77] , what is it?
(A) > 100 nM

(Q) And then Cc1cc(N)cc(-c2nc3c4c(nc(OC[C@@H]5CCCN5C5COC5)nc4c2F)N(C(C)c2cccnc2N)CCO3)c1C(F)(F)F (single isomer, unassigned) [Compound 161] , what is it?
(A) > 100 nM

(Q) And then C[C@H](c1cccnc1N)N1CCOc2nc(-c3c(C(F)(F)F)ccc4[nH]ncc34)c(F)c3nc(OC[C@@]45CCCN4C[C@H](F)C5)nc1c23 (single isomer, unassigned) [Compound 26] , what is it?
(A) > 1000 nM

(Q) And then Cc1c(F)c(N)cc(-c2nc3c4c(nc(OC[C@@H]5CCCN5C)nc4c2F)N(C(C)c2cccnc2N)CCO3)c1C(F)(F)F (single isomer, unassigned) [Compound 86] , what is it?
(A) > 100 nM

(Q) And then Cc1c(F)c(N)cc(-c2nc3c4c(nc(OC[C@@]56CCCN5C[C@H](F)C6)nc4c2F)N(C(C)c2cn(C)nc2N)CCO3)c1C(F)(F)F (single isomer, unassigned) [Compound 261] , what is it?
(A) > 100 nM

(Q) And then CC(c1cccnc1N)N1CCOc2nc(-c3cc(O)cc(Cl)c3C3CC3)c(F)c3nc(OC[C@@H]4CC(F)(F)CN4C)nc1c23 (single isomer, unassigned) [Compound 55] , what is it?
(A) > 1000 nM

(Q) And then CC(c1cccnc1N)N1CCOc2nc(-c3cc(O)cc4ccc(F)c(F)c34)c(F)c3nc(OC[C@H]4COCCN4)nc1c23 (stereo partly drawn) [Compound 12] , what is it?
(A) > 1000 nM

(Q) And then Cc1cc2[nH]ncc2c(-c2nc3c4c(nc(OC[C@@]56CCCN5C[C@H](F)C6)nc4c2F)N(C(C)c2cccnc2N)[C@H]2CCC[C@H]2O3)c1C(F)(F)F (stereo partly drawn) [Compound 389] , what is it?
(A) > 100 nM
